biological target: F508delCFTR (Homo sapiens, UniProt P13569, DEL508-508); construct: expressed in transfected cells; host or cells: CFBE41o- human lung-derived epithelial cells (CFBE4lo-F508delCFTR-HRP), doxycycline-inducible; assay: Cell Surface Expression-Horse Radish Peroxidase (CSE-HRP) Assay; type: cell-based; details: CSE-HRP; without co-corrector; maximum at any tested concentration, normalized to on-plate positive control; read-out: Maximum % activity (without co-corrector);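 further: percent of the 2 µM on-plate positive control corrector response above DMSO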
Sequence (P13569 with tags, fused parts or gaps DEL508-508): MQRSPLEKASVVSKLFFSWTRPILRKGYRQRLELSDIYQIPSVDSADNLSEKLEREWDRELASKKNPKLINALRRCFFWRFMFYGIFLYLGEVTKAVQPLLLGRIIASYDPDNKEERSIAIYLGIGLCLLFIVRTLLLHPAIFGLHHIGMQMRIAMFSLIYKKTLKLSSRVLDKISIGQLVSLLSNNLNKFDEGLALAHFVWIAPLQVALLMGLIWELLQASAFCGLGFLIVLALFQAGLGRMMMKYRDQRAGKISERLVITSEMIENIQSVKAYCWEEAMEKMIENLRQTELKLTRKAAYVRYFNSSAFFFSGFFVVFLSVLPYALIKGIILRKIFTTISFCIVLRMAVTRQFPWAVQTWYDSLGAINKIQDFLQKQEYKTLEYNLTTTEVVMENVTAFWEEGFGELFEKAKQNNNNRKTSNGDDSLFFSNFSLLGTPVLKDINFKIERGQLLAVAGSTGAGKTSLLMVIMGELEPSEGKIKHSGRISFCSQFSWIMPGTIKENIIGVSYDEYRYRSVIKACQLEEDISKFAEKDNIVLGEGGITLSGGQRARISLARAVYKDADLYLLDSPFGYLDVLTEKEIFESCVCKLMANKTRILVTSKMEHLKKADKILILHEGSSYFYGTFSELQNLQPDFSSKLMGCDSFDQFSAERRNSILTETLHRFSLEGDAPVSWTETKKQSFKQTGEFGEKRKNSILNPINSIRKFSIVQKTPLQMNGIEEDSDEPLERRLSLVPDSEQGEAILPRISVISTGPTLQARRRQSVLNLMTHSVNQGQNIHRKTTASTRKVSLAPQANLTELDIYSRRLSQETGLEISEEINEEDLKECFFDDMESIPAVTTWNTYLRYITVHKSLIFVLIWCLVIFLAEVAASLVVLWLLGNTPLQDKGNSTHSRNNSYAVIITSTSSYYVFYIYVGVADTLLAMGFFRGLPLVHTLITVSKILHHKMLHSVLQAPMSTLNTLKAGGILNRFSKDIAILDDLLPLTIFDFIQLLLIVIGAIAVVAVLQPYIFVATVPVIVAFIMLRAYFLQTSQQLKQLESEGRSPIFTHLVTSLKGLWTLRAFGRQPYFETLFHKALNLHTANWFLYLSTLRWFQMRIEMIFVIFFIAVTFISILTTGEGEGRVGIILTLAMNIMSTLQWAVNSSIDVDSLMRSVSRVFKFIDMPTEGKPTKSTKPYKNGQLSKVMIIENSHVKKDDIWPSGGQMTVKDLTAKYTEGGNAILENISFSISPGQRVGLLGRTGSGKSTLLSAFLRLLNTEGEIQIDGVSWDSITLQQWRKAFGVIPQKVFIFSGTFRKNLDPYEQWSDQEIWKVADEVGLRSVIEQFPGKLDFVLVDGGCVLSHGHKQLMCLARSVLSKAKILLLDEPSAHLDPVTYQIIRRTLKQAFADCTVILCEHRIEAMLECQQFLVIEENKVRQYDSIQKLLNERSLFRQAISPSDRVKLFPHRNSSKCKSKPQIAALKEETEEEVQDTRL
Readout Name: Emax

Look over these answered cases.
Compound	Result
CC(C)(C)[C@@H]1[C@@H](NCc2cc(C(F)(F)F)cnc2Cl)[C@@H](c2ccccc2)N(C(=O)C2CCCCC2)[C@H]1C(=O)O (racemic) [II-15]	< 100%
COc1ccc(C(C)(C)C)cc1CN[C@H]1[C@H](C(C)(C)C)[C@@H](C(=O)O)N(C(=O)C2Cc3ccccc3O2)[C@H]1c1ccccc1 (single isomer, unassigned) [II-272]	100 to 200%

Here is the next item to consider.
Lab book: Emax of COc1ccc(C(F)(F)F)cc1CN[C@@H]1[C@@H](C(C)(C)C)[C@H](C(=O)O)N(C(=O)C2CCCCC2)[C@@H]1c1ccccc1OC (racemic) [II-17] noted as 100 to 200%
